- Tested on: BT-549
- assayMethodText: normalised viability (% of control), CellTiter-Blue; higher = more viable cells (about 100 = DMSO control)
- conditionContext: 100 nM; incubation time: 72 h
normalised viability for assorted molecules
The reply should be a number in %, with the unit left off.

A selection of reference data follows.
Cc1c(N)nc([C@H](CC(N)=O)NC[C@H](N)C(N)=O)nc1C(=O)N[C@H](C(=O)N[C@H](C)[C@@H](O)[C@H](C)C(=O)N[C@H](C(=O)NCCc1nc(-c2nc(C(=O)NCCC[S+](C)C)cs2)cs1)[C@@H](C)O)[C@@H](OC1OC(CO)C(O)C(O)C1OC1OC(CO)C(O)C(OC(N)=O)C1O)c1cnc[nH]1 (some centres undefined) : 61.4
CN1CCN(c2nc(C3=C(c4c[nH]c5ccccc45)C(=O)NC3=O)c3ccccc3n2)CC1 : 86.4
CC(C)C(=O)Nc1ccc([N+](=O)[O-])c(C(F)(F)F)c1 [Flutamide] : 85.8

# evaluate next
INPUT: So what's the measured normalised viability for this one? Nc1nc(Cl)nc2c1ncn2[C@@H]1O[C@H](CO)[C@@H](O)[C@@H]1F
OUTPUT: 85.6

----------
# maps each entry to its normalised response
- System: DU-4475
- assayMethodText: normalised response (% of control), CellTiter-Glo; higher = more viable cells (100 = DMSO, 0 = benzethonium chloride kill control)
- conditionContext: incubation time: 72 h
Field: numeric (%). Do not append units.

CC[C@H](CC#N)OC(=O)N[C@@H](C)c1cccc(NC(=O)Nc2ccc(-c3cnco3)c(OC)c2)c1 [AVN944] (100 nM) : 97.1
CC[C@@H]1C(=O)N(C)c2cnc(Nc3ccc(C(=O)N[C@H]4CC[C@H](N5CCN(CC6CC6)CC5)CC4)cc3OC)nc2N1C(C)C [Volasertib] (10 nM) : 100

INPUT: Report normalised response for COc1cc2c(Oc3ccc(NC(=O)C4(C(=O)Nc5ccc(F)cc5)CC4)cc3F)ccnc2cc1OCCCN1CCOCC1 [Foretinib] (10 nM) tested on DU-4475.
OUTPUT: 103

----------
- Tested on: HCC1937
- assayMethodText: normalised response (% of control), CellTiter-Glo; higher = more viable cells (100 = DMSO, 0 = benzethonium chloride kill control)
- conditionContext: incubation time: 72 h
We begin with a simple list: items and their reported normalised response.

Cn1cc(C[C@@H](N)C(=O)O)c2ccccc21 [1-methyl-D-tryptophan] (50 nM) : 96.2%
COc1cc2c(N3CCN(C(=O)Nc4ccc(OC(C)C)cc4)CC3)ncnc2cc1OCCCN1CCCCC1 [Tandutinib] (10 nM) : 97.4%
CN1CCN(c2nc(C3=C(c4c[nH]c5ccccc45)C(=O)NC3=O)c3ccccc3n2)CC1 [Sotrastaurin] (100 nM) : 97.8%
N[C@@H](Cc1ccc(N(CCCl)CCCl)cc1)C(=O)O [Melphalan] (125 nM) : 83.4%
Cc1cc2c(F)c(Oc3ncnn4cc(OC[C@@H](C)O)c(C)c34)ccc2[nH]1 [Brivanib] (10 nM) : 101%

Moving on to the next compound.
INPUT: Given COc1cc2c(cc1-c1c(C)noc1C)ncc1[nH]c(=O)n([C@H](C)c3ccccn3)c12 [I-BET151] (100 nM) , state its recorded normalised response.
OUTPUT: 98.4%

----------
- System: CAL-148
- assayMethodText: normalised viability (% of control), CellTiter-Blue; higher = more viable cells (about 100 = DMSO control)
- conditionContext: incubation time: 72 h
List of normalised viability values.
Write the value in % as a bare number.

CC(C)C(=O)Nc1ccc([N+](=O)[O-])c(C(F)(F)F)c1 [Flutamide] (10000 nM) : 106

INPUT: For CN1CCN(c2nc(C3=C(c4c[nH]c5ccccc45)C(=O)NC3=O)c3ccccc3n2)CC1 [Sotrastaurin] (10000 nM) , what is its reported normalised viability?
OUTPUT: 127

INPUT: Next entry: CC[C@@H]1C(=O)N(C)c2cnc(Nc3ccc(C(=O)N[C@H]4CC[C@H](N5CCN(CC6CC6)CC5)CC4)cc3OC)nc2N1C(C)C [Volasertib] (1000 nM)
OUTPUT: 31.4

INPUT: Same question for Cc1c(N)nc([C@H](CC(N)=O)NC[C@H](N)C(N)=O)nc1C(=O)N[C@H](C(=O)N[C@H](C)[C@@H](O)[C@H](C)C(=O)N[C@H](C(=O)NCCc1nc(-c2nc(C(=O)NCCC[S+](C)C)cs2)cs1)[C@@H](C)O)[C@@H](OC1OC(CO)C(O)C(O)C1OC1OC(CO)C(O)C(OC(N)=O)C1O)c1cnc[nH]1 (stereo not given in full) [Bleomycin] (10000 nM) please.
OUTPUT: 82.8

INPUT: Please do the same for CO[C@H]1C[C@@H]2CC[C@@H](C)[C@@](O)(O2)C(=O)C(=O)N2CCCC[C@H]2C(=O)O[C@H]([C@H](C)C[C@@H]2CC[C@@H](O)[C@H](OC)C2)CC(=O)[C@H](C)/C=C(\C)[C@@H](O)[C@@H](OC)C(=O)[C@H](C)C[C@H](C)/C=C/C=C/C=C/1C [Sirolimus] (1000 nM) as well.
OUTPUT: 44

----------
- System: CAL-120
- assayMethodText: normalised response (% of control), CellTox Green; higher = less cell death (100 = DMSO, 0 = benzethonium chloride kill control)
- conditionContext: incubation time: 72 h
normalised response values by entry
Report the value in % with no unit label.

Solved cases (3 shown):
COc1cc(Nc2ncc(F)c(Nc3ccc4c(n3)N(COP(=O)(O)O)C(=O)C(C)(C)O4)n2)cc(OC)c1OC [Fostamatinib] (25 nM) : 98.4
N[C@@H](Cc1ccc(N(CCCl)CCCl)cc1)C(=O)O [Melphalan] (125 nM) : 101
O=C(c1cc(Cc2n[nH]c(=O)c3ccccc23)ccc1F)N1CCN(C(=O)C2CC2)CC1 [Olaparib] (1000 nM) : 97

INPUT: Requested field: normalised response. Item: NC(=O)c1cccc2cn(-c3ccc([C@@H]4CCCNC4)cc3)nc12 [MK-4827] (1000 nM)
OUTPUT: 98.5

----------
- Tested on: HDQ-P1
- assayMethodText: normalised viability (% of control), CellTiter-Blue; higher = more viable cells (about 100 = DMSO control)
- conditionContext: 10 nM; incubation time: 72 h
Readings of normalised viability for the listed compounds
Output spec: scalar in %, unitless text.

Completed entries (count: 5):
Nc1nc(Cl)nc2c1ncn2[C@@H]1O[C@H](CO)[C@@H](O)[C@@H]1F : 110
Cn1nnc2c(C(N)=O)ncn2c1=O [Temozolomide] : 92.3
C[C@@H]1C[C@H]2[C@@H]3CCC4=CC(=O)C=C[C@]4(C)[C@@]3(F)[C@@H](O)C[C@]2(C)[C@@]1(O)C(=O)CO : 113
CCN(CC)CCOc1ccc(C(=C(Cl)c2ccccc2)c2ccccc2)cc1 : 115
Cc1c(N)nc([C@H](CC(N)=O)NC[C@H](N)C(N)=O)nc1C(=O)N[C@H](C(=O)N[C@H](C)[C@@H](O)[C@H](C)C(=O)N[C@H](C(=O)NCCc1nc(-c2nc(C(=O)NCCC[S+](C)C)cs2)cs1)[C@@H](C)O)[C@@H](OC1OC(CO)C(O)C(O)C1OC1OC(CO)C(O)C(OC(N)=O)C1O)c1cnc[nH]1 (stereo partly specified) : 82.3

As a next step, examine the compound that follows.
INPUT: Please look up its normalised viability: NC(=O)c1cccc2cn(-c3ccc([C@@H]4CCCNC4)cc3)nc12
OUTPUT: 105

----------
- Test system: HCC1937
- assayMethodText: normalised viability (% of control), CellTiter-Blue; higher = more viable cells (about 100 = DMSO control)
- conditionContext: 100 nM; incubation time: 72 h
Overview of recorded normalised viability for various molecules

Answered examples (3):
NC(=O)c1cccc2cn(-c3ccc([C@@H]4CCCNC4)cc3)nc12 [MK-4827] : 72.9%
CC(C)C(=O)Nc1ccc([N+](=O)[O-])c(C(F)(F)F)c1 [Flutamide] : 108%
Cc1c(C(=O)Nc2ccc(N3C[C@@H](C)O[C@@H](C)C3)nc2)cccc1-c1ccc(OC(F)(F)F)cc1 [NVP-LDE225] : 97.2%

Proceeding to the next molecule to report its normalised viability.
INPUT: What does the record list as normalised viability for CC/C(=C(\c1ccccc1)c1ccc(OCCN(C)C)cc1)c1ccccc1 [Tamoxifen] ?
OUTPUT: 93.7%

----------
- Test system: MDA-MB-453
- assayMethodText: normalised viability (% of control), CellTiter-Blue; higher = more viable cells (about 100 = DMSO control)
- conditionContext: incubation time: 72 h
Readings of normalised viability for the listed molecules
Supply the numeric figure in %, leaving out any unit text.

// solved cases for normalised viability follow
C[C@@H](C(=O)O)c1ccc(-c2ccccc2)c(F)c1 [Tarenflurbil] (1000 nM) : 87.7
CC[C@@H]1C(=O)N(C)c2cnc(Nc3ccc(C(=O)N[C@H]4CC[C@H](N5CCN(CC6CC6)CC5)CC4)cc3OC)nc2N1C(C)C [Volasertib] (100 nM) : 24.5

INPUT: What value of normalised viability has been recorded for this entry: Nc1nc(Cl)nc2c1ncn2[C@@H]1O[C@H](CO)[C@@H](O)[C@@H]1F [Clofarabine] (1000 nM)
OUTPUT: 53.6

INPUT: Also, CC/C(=C(\c1ccccc1)c1ccc(OCCN(C)C)cc1)c1ccccc1 [Tamoxifen] (1000 nM) please.
OUTPUT: 105
